Test system: recombinant human PI3Kγ (aa144-1102)-6His (Homo sapiens (Human))
Sequence (P48736 144-1102): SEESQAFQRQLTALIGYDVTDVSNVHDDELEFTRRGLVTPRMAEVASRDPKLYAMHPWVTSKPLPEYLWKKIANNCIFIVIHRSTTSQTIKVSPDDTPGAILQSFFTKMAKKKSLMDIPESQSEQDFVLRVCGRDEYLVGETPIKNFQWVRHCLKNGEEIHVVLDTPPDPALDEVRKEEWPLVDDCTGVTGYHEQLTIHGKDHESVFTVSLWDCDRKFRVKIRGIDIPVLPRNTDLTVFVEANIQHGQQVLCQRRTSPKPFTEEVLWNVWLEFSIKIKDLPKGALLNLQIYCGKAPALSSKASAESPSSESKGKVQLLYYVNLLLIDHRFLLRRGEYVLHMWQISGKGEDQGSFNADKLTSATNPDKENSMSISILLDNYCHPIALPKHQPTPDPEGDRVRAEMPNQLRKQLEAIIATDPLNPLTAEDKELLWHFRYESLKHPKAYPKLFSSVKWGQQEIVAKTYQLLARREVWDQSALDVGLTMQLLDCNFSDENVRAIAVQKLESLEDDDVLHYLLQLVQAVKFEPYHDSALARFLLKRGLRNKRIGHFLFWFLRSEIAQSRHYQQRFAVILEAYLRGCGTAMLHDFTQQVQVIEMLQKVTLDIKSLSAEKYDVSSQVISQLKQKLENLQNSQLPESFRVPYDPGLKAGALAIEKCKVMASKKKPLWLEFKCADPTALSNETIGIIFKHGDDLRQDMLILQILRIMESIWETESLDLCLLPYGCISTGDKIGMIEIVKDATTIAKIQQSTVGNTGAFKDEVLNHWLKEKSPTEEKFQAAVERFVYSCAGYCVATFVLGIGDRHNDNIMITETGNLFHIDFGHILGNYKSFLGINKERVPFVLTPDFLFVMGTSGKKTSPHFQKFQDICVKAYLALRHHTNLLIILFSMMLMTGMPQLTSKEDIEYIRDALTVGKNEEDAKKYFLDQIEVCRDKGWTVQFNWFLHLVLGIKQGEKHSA
Assay details: Test A: Enzymatic Activity Assay for Rec Human PI3Kγ (ADP-Glo)
Format: biochemical
Experimental parameters: 20 μM ATP, 80 μM DiC8-PIP2, 1.2 nM PI3Kγ, 15 min pre-incubation, 60 min reaction
Experimental: Pharmacological Activity Test A: Enzymatic Activity Assay for Rec Human PI3Kγ The activity of recombinant human PI3Kγ (aa144-1102)-6His was determined by measuring the ADP level after phosphorylation of DiC8-PIP2 using a commercially available ADP-Glo™ kit from Promega. […] Prior to detection 6 μl of ADP-Glo™ Kinase Detection Reagent was added and the plates were read in a micro plate reader using a Luminescence filter.
Measurement type: PI3Kγ activity, pIC50

Exercise: What is its PI3Kγ activity, pIC50 for recombinant human PI3Kγ (aa144-1102)-6His (Homo sapiens (Human))? Entry: CNS(=O)(=O)c1cc(-c2cnc(NC(C)=O)s2)cc2c1C(=O)N([C@@H](C)C1CC1)C2
Solution: 9.0

Exercise: Input CNS(=O)(=O)c1cc(-c2sc(NC(C)=O)nc2C)cc2c1C(=O)N([C@@H](C)C(C)(C)C)C2
Solution: 8.8

Exercise: Input CC(=O)Nc1nc(C)c(-c2cc3c(c(S(=O)(=O)N(C)C)c2)C(=O)N([C@@H](C)C2CC2)C3)s1
Solution: 9.1

Exercise: Input CC(=O)Nc1nc(C)c(-c2cc3c(c(S(C)(=O)=O)c2)C(=O)N(C(C)C)C3)s1
Solution: 8.8

Exercise: Input CCS(=O)(=O)Nc1cc(-c2sc(NC(C)=O)nc2C)cc2c1C(=O)N([C@@H](C)C1CC1)C2
Solution: 9.1
